Read-out: Epidermal growth factor receptor (EGFR), EGFR (gene 1956)
assay protocol: BSK_hDFCGF_EGFR: BioMAP Diversity Plus: hDFCGF Assay for Epidermal growth factor receptor (EGFR) Biomarker Activity (AID 2283057)
condition notes: primary human foreskin fibroblasts; actives raise or lower the signal
Calls of active or inactive are those of the source. Rule for the calls: active = hit-call score of the fitted dose curve at least 0.9, where 1 is the maximum; inactive = score below 0.9.
Classes to choose from: label 1 (active), label 0 (inactive)

Entry "CCC(=O)O[C@H]1CC[C@H]2[C@@H]3CCC4=CC(=O)CC[C@]4(C)[C@H]3CC[C@]12C" : call = ?
label 0

* * *

system under test: Estrogen receptor (Homo sapiens) + Estrogen receptor beta (Homo sapiens) (UniProt P03372+Q92731)
Sequence (P03372 whole entry, looked up, the tested form may be a part): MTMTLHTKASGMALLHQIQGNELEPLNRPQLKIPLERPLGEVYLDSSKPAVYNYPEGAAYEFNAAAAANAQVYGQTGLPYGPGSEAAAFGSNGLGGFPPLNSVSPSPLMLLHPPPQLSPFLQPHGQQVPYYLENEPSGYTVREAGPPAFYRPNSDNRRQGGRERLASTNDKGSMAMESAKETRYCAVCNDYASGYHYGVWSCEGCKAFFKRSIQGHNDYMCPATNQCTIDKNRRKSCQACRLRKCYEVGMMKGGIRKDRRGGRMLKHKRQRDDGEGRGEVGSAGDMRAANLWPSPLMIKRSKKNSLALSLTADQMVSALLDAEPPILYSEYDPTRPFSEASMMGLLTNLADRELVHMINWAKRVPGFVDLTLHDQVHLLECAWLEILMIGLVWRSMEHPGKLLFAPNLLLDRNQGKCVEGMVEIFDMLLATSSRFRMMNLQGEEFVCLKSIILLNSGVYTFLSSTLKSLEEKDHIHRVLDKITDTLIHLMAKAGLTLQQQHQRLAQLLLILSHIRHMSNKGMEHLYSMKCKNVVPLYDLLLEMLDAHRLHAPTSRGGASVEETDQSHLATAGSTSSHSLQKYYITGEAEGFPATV
Sequence (Q92731 whole entry, looked up, the tested form may be a part): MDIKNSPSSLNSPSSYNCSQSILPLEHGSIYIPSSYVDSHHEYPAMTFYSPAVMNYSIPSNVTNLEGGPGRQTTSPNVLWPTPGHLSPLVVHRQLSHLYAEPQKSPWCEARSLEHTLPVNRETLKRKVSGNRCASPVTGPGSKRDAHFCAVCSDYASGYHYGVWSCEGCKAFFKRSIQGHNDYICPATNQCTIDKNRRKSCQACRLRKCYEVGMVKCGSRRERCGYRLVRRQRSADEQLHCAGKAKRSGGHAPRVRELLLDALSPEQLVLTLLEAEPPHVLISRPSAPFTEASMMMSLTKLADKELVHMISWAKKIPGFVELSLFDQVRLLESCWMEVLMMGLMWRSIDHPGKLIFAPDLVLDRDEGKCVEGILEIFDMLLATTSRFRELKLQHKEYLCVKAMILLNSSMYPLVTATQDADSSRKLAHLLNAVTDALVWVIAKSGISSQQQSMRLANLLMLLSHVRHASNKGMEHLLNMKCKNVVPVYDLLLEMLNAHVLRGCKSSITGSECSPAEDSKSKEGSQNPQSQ
assay protocol: OT_ER_ERaERb_1440: Odyssey Thera (OT) 24-hour HEK293T Protein-Complementation Assay for Estrogen Receptor-alpha/-beta Homodimer (AID 2283356);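 note: heteromer of ER alpha and ER beta binding domains; hits raise reporter fluorescence and both agonists and antagonists give an increase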
Inconclusive results are not listed. Active and inactive are the calls of the source. How the source made its calls: active means hit-call score of the fitted dose curve at least 0.9, where 1 is the maximum; inconclusive means response in the unintended direction; inactive means score below 0.9.
Answer with one of the outcomes t for active, f for inactive

Recorded call for "N#Cc1ccc(N(CC(N)=O)CC(F)(F)F)cc1C(F)(F)F" ?
f

And what about the compound "CN(C)c1nc(=O)n(C2CCCCC2)c(=O)n1C" ?
f

Could you do the same for "Nc1ccc(-c2ccc(N)cc2)cc1" , please?
f

Same question, "O=C(O)C(F)(F)C(F)(F)C(F)(F)C(F)(F)C(F)(F)F" this time
f

Now this one: CC(C)C(=O)OCC(C)(C)C(OC(=O)C(C)C)C(C)C (stereo unspecified)
f

How about this compound: "ClC1=C(Cl)[C@]2(Cl)[C@@H]3[C@@H](Cl)[C@H]4O[C@H]4[C@@H]3C1(Cl)C2(Cl)Cl"
t

Now consider "Cc1cc(O)ccc1Cl" and answer again.
t

Next entry: "CCOC(=O)C(O)(c1ccc(Cl)cc1)c1ccc(Cl)cc1"
f

Next entry: "O=S(=O)(O)C(F)(F)C(F)(F)C(F)(F)C(F)(F)F"
f

Try the compound "NS(=O)(=O)C(F)(F)C(F)(F)C(F)(F)C(F)(F)C(F)(F)C(F)(F)C(F)(F)C(F)(F)F"
t

Now consider "C=CC(=O)NCNC(=O)C=C" .
f

* * *

assay protocol: APR_HepG2_p53Act_24hr: Apredica 24-hour HepG2 Assay for p53 Activation (AID 2282913);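 note: p53 protein immunofluorescence averaged per cell in HepG2 with Hoechst nuclei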
condition notes: high-content imaging, actives raise or lower the signal
The source made the active and inactive calls. Rule for the calls: active = hit-call score of the fitted dose curve at least 0.9, where 1 is the maximum; inactive = score below 0.9.
The reply should be one of these categories: active, inactive

Example cases with answers are listed next.
Nc1ccc(-c2ccc(N)cc2)cc1 : active
C=CC(N)=O : inactive
Cc1ccc(O)c(C)c1 : inactive

Which outcome was entered for the molecule "O=C(O)C(F)(F)C(F)(F)C(F)(F)C(F)(F)C(F)(F)F" in this test?
inactive

Same question, "CCC(=O)O[C@H]1CC[C@H]2[C@@H]3CCC4=CC(=O)CC[C@]4(C)[C@H]3CC[C@]12C" this time
inactive

Another molecule to check: "Cc1cc2c3c(c1)C(c1ccccc1)=N[C@@H](NC(=O)c1ccncc1)C(=O)N3CC2"
inactive

* * *

Read-out: MicroRNA 122 (MIR122), gene 406906
assay protocol: LTEA_HepaRG_MIR122: Life Technologies and Expression Analysis (LTEA) Assay for MicroRNA 122 (MIR122) using HepaRG (AID 2283516); note: the transcript read is the microRNA miR-122
condition notes: mRNA level, 48 h; actives raise or lower the signal
Activity calls are given as the source filed them. Rule for the calls: active = hit-call score of the fitted dose curve at least 0.9, where 1 is the maximum; inactive = score below 0.9.
Thanks in advance; please answer with one of these: active, inactive

C[C@]12CCC(=O)C=C1CC[C@@H]1[C@@H]2CC[C@]2(C)C(=O)CC[C@@H]12 : inactive
Clc1ccc(Cl)cc1 : inactive
Cc1cc(O)ccc1Cl : inactive
C[C@]12CCC(=O)C=C1CC[C@@H]1[C@@H]2CC[C@@]2(C)[C@H]1CC[C@]2(C)O : active

Fill in: this test's call for "CN(C)c1nc(=O)n(C2CCCCC2)c(=O)n1C" is ___
inactive

Try "CC#Cc1cc(C)nc(Nc2ccccc2)n1" next.
active

Origin of values: PubChem BioAssay (EPA / NIEHS)
